# STATED_CONDITIONS: in ethanol, 298.35 K
OBSERVATION_TYPE: solubility (mole fraction)
Give the figure by itself; no unit, no explanation.

For CC1(C)COP(=O)(C(C)(O)c2ccccc2)OC1 (stereo unspecified) , what is its reported solubility (mole fraction)?
0.00933

###

# STATED_CONDITIONS: in 1,2-dichloroethane, 293.35 K
OBSERVATION_TYPE: solubility (mole fraction)

For CC1(C)COP(=O)(C(C)(O)c2ccccc2)OC1 (stereo unspecified) , what is its reported solubility (mole fraction)?
0.00171

###

# STATED_CONDITIONS: in acetonitrile, 333.05 K
OBSERVATION_TYPE: solubility (mole fraction)
Give the figure by itself; no unit, no explanation.

For CC1(C)COP(=O)(C(C)(O)c2ccccc2)OC1 (stereo unspecified) , what is its reported solubility (mole fraction)?
0.00866

###

# STATED_CONDITIONS: in 1,2-dichloroethane, 313.15 K
OBSERVATION_TYPE: solubility (mole fraction)

For CC1(C)COP(=O)(C(C)(O)c2ccccc2)OC1 (stereo unspecified) , what is its reported solubility (mole fraction)?
0.00359

###

# STATED_CONDITIONS: in 1,2-dichloroethane, 298.25 K
OBSERVATION_TYPE: solubility (mole fraction)
Give the figure by itself; no unit, no explanation.

For CC1(C)COP(=O)(C(C)(O)c2ccccc2)OC1 (stereo unspecified) , what is its reported solubility (mole fraction)?
0.00218

###

# STATED_CONDITIONS: in acetone, 303.35 K
OBSERVATION_TYPE: solubility (mole fraction)
Give the figure by itself; no unit, no explanation.

For CC1(C)COP(=O)(C(C)(O)c2ccccc2)OC1 (stereo unspecified) , what is its reported solubility (mole fraction)?
0.00363
